tested on: P12-Ichikawa; test: cell viability relative to DMSO control; higher = less cytotoxic; settings: HPLM + 10% dialyzed FBS; 48 h; 0.000781 µM
Would you mind telling me the reported cell viability of each entry?
Give bare numbers, in %.

Please give the measured cell viability for this compound: C[C@@H](CN1CC(=O)NC(=O)C1)N1CC(=O)NC(=O)C1
104

Please give the measured cell viability for this compound: CC#CCn1c(N2CCC[C@@H](N)C2)nc2c1c(=O)n(Cc1nc(C)c3ccccc3n1)c(=O)n2C
104

Please give the measured cell viability for this compound: Cc1csc(-c2nnc(Nc3ccc(Oc4ncccc4-c4ccnc(N)n4)cc3)c3ccccc23)c1
107

Please give the measured cell viability for this compound: CN1CCCN(CC1)C2=CC=C3C(=O)\C(=C/4SC5=C(C=CC=C5)N4C3=N2)C(=O)NCC6=CN=C(C)C=N6
114

Please give the measured cell viability for this compound: O=C(O)c1cccnc1Nc1cccc(C(F)(F)F)c1
112

Batch: cell viability for all items listed.
1. NC(=O)c1ccc(N(C(N)=O)c2c(F)cccc2F)nc1-c1ccc(F)cc1F
2. CC(C)OC(=O)[C@H](C)N[P@](=O)(OC[C@H]1O[C@@H](N2\C=C/C(=O)NC2=O)[C@](C)(F)[C@@H]1O)OC3=CC=CC=C3
3. Cc1ccccc1C(=O)Nc1ccc(C(=O)N2CCCC(O)c3cc(Cl)ccc32)c(C)c1 (centres undefined)
4. CC12CC3CC(C)(C1)CC(N)(C3)C2

[101, 104, 116, 122]

====

Would you mind telling me the reported cell viability of each entry?
test system: NOMO1; assay: cell viability relative to DMSO control; higher = less cytotoxic; conditions: HPLM + 10% dialyzed FBS; 48 h; 0.00702 µM
Give bare numbers, in %.

Worked examples, 2 compounds total:
Please give the measured cell viability for this compound: CC#CCn1c(N2CCC[C@@H](N)C2)nc2c1c(=O)n(Cc1nc(C)c3ccccc3n1)c(=O)n2C
100

Please give the measured cell viability for this compound: CC1=CC(=CC(=C1C\C2=N\CCN2)C)C(C)(C)C
107

Batch: cell viability for all items listed.
1. Nc1c2c(nc3ccccc13)CCCC2
2. CCc1ccc(/C=C2/SC(=S)NC2=O)cc1
3. COc1c(C)c2c(c(O)c1C/C=C(\C)CCC(=O)O)C(=O)OC2
4. Nc1ncnc2c1ncn2[C@@H]1O[C@H](CO)C[C@H]1O
5. COC1=C(OCCCN2CCOCC2)C=CC\3=C1/N=C(/NC(=O)C4=CN=C(N)N=C4)N5CC/N=C35
6. CN1CCCN(CC1)C2=CC=C3C(=O)\C(=C/4SC5=C(C=CC=C5)N4C3=N2)C(=O)NCC6=CN=C(C)C=N6
7. CC(C)OC(=O)[C@H](C)N[P@](=O)(OC[C@H]1O[C@@H](N2\C=C/C(=O)NC2=O)[C@](C)(F)[C@@H]1O)OC3=CC=CC=C3

1: 122; 2: 88; 3: 106; 4: 97.1; 5: 111; 6: 108; 7: 119

====

system: SEM cells; assay: cell viability relative to DMSO control; higher = less cytotoxic; conditions: RPMI 5 mM glucose + 10% FBS; 48 h; 46.1 µM
Would you mind telling me the reported cell viability of each entry?
Numbers only, in %.

Worked examples, 5 compounds total:
Please give the measured cell viability for this compound: Nc1ncnc2c1ncn2[C@@H]1O[C@H](CO)C[C@H]1O
67.7

Please give the measured cell viability for this compound: CC(N[C@H]1CCCC[C@@H]1NC(=O)c1ccc(Cl)cc1)c1cccc2ccccc12 (some centres undefined)
110

Please give the measured cell viability for this compound: CC#CCn1c(N2CCC[C@@H](N)C2)nc2c1c(=O)n(Cc1nc(C)c3ccccc3n1)c(=O)n2C
88.7

Please give the measured cell viability for this compound: OC1=CC=C(C=C1)\C2=C(O)\C(=O)C3=C(O2)C=C(O)C=C3O
87.2

Please give the measured cell viability for this compound: O=P(O)(O)C(O)(Cn1ccnc1)P(=O)(O)O
114

Batch: cell viability for all items listed.
1. CCCCOCCOc1nc(-c2ccc(C(=O)O)c(F)c2)sc1C
2. Nc1ncnc2c1c(-c1cccc(OCc3ccccc3)c1)cn2[C@H]1C[C@@H](CN2CCC2)C1
3. CCCNC(=O)Nc1ccc(Oc2ncnc3cc(OC)c(OC)cc23)cc1Cl
4. C=C[C@H]1CN2CCC1C[C@@H]2C(O)c1ccnc2ccc(OC)cc12 (some centres undefined)

1. 106
2. 64.4
3. 57.7
4. 63

Every entry's value here was drawn from the supplement of paper PMC11451515.
